List of EC50 values.
# tested_on: RORγ ligand-binding domain fused to Gal4 (Homo sapiens, UniProt P51449)
# Construct: Gal4 (galactose-responsive transcription factor); expressed in transfected cells; host or cells: HEK293
# assay_comment: RORγ Reporter Assay (Gal4)
# Assay type: cell-based
# test_parameters: RORγ Gal4 assay EC50, Examples in <100 range, Examples of WO2016020288; based on % inhibition at 0.1 and/or 1 uM (Table 5 c, footnote 4)

Examples with answers:
INSERT INTO assay_data (compound, result) VALUES
  ('NC(=O)Cc1ccc(CNc2ncnc(N(Cc3cccc(OC(F)(F)F)c3)C3CC3)c2F)cc1 [Example A102, reference compound]', '< 100 nM'),
  ('NC(=O)Cc1ccc(CNc2ncnc(N(Cc3ccc(C(F)(F)F)nc3)C3CC3)c2F)cc1 [Example A83, reference compound]', '< 100 nM'),
  ('OC1(CNc2ncnc(N(Cc3ccc(C(F)(F)F)cc3)C3CC3)c2F)CCC(F)(F)CC1 [Example A44, reference compound]', '< 100 nM');

Recall the reported EC50 of NC(=O)Cc1ccc(CNc2ncnc(N(Cc3ccc(C(F)(F)F)cn3)C3CC3)c2F)cc1 [Example A85, reference compound] when tested on RORγ ligand-binding domain fused to Gal4 (Homo sapiens, UniProt P51449). < 100 nM

Recall the reported EC50 of NC(=O)Cc1ccc(CNc2ncnc(N(Cc3ccc(C(F)(F)F)cc3)C3CC3)c2F)cc1 [Example A2, reference compound] when tested on RORγ ligand-binding domain fused to Gal4 (Homo sapiens, UniProt P51449). < 100 nM

----------
List of EC50 values.
# tested_on: RORγ ligand-binding domain fused to Gal4 (Homo sapiens, UniProt P51449)
# Construct: Gal4 (galactose-responsive transcription factor); expressed in transfected cells; host or cells: HEK293
# Sequence (P51449 269-508 limits assumed): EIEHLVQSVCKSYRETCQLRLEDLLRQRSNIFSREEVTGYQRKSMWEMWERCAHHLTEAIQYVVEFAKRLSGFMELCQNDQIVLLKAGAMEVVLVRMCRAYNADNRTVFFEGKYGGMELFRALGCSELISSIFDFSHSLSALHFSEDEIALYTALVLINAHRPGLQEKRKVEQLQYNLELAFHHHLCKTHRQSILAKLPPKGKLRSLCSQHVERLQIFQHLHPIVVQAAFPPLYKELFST
# assay_comment: RORγ Reporter Assay (Gal4)
# Assay type: cell-based
# test_parameters: HEK293 cells co-transfected with RORγ LBD-Gal4 and luciferase reporter; 24 h incubation; absolute EC50; read-out: EC50
Number only, in nM; omit the unit.

Examples with answers:
INSERT INTO measurements (compound, unit_annotation, numeric_value) VALUES
  ('CC(F)(F)c1ccc(CN(c2ncnc(NC[C@H]3CCN(CC(N)=O)C[C@@H]3O)c2F)C2CC2)cn1 (relative stereo) [Example A7-29-2]', 'nM', 70),
  ('CC(C)N(Cc1ccc(C(F)(F)F)cc1)c1ncnc(NC[C@H]2CCN(CC(N)=O)C[C@@H]2O)c1F (racemic) [Example A7-19]', 'nM', 42),
  ('CCN(Cc1ccc(C(F)(F)F)cc1)c1ncnc(NC[C@@H]2CCN(C(CCO)C(N)=O)C[C@H]2O)c1F (relative stereo) [Example A7-67]', 'nM', 43),
  ('NC(=O)CN1CC[C@H](CNc2ncnc(N(Cc3ccc(C(F)(F)F)cc3F)C3CC3)c2F)[C@@H](O)C1 (single isomer, unassigned) [Example A7-22-1]', 'nM', 4.9),
  ('CN(Cc1ccc(C(F)(F)F)cc1)c1ncnc(NC[C@H]2CCN(CC(N)=O)C[C@@H]2O)c1F (racemic) [Example A7-20]', 'nM', 26);

Answer with the recorded EC50 of NC(=O)CN1CC[C@H](CNc2ncnc(N(Cc3cnc(C(F)(F)F)nc3)C3CCC3)c2F)[C@@H](O)C1 (single isomer, unassigned) [Example A7-18-2] only. 82

----------
# tested_on: RORγ ligand-binding domain fused to Gal4 (Homo sapiens, UniProt P51449)
# Construct: Gal4 (galactose-responsive transcription factor); expressed in transfected cells; host or cells: HEK293
# assay_comment: RORγ Reporter Assay (Gal4)
# Format: cell-based
# test_parameters: HEK293 cells co-transfected with RORγ LBD-Gal4 and luciferase reporter; 24 h incubation; absolute EC50; read-out: EC50
Labelling field: enter yes if recorded EC50 is less than 90 nM. Enter no if it equals or exceeds that cut-off.

# example entries with known answers
INSERT INTO measurements (compound, assigned_category) VALUES
  ('NC(=O)CN1CCC(F)(CNc2ncnc(N(Cc3ccc4c(c3)OCC(=O)N4)C3CC3)c2F)CC1', 'no'),
  ('NC(=O)CN1CCC(CNc2ncnc(N(Cc3ccc(C(F)(F)F)cc3)C3CC3)c2F)(c2ncon2)CC1', 'yes'),
  ('NC(=O)CN1CCC(CNc2ncnc(N(Cc3ccc(C(F)(F)F)cc3)C3CC3)c2F)CC1', 'yes'),
  ('NC(=O)C(C1CCOCC1)N1CC[C@@H](CNc2ncnc(N(Cc3ccc(C(F)(F)F)cc3)C3CC3)c2F)[C@H](O)C1 (mixture of isomers)', 'yes'),
  ('CC1CC(CNc2ncnc(N(Cc3ccc(C(F)(F)F)cc3)C3CC3)c2F)CCN1CC(N)=O (centres unmarked)', 'yes');

Is EC50 strictly under 90 nM for the entry CN(Cc1ccc(C(F)(F)F)cc1)c1ncnc(NC[C@H]2CCN(CC(N)=O)C[C@@H]2O)c1F (single isomer, unassigned) [Example A7-20-1] ? yes

Is EC50 strictly under 90 nM for the entry NC(=O)CN1CC[C@@H](CNc2ncnc(N(Cc3ccc(C(F)(F)F)cc3)C3CC3)c2F)[C@@H](O)C1 (racemic) ? no

Is EC50 strictly under 90 nM for the entry NC(=O)C(CO)N1CCC(CO)(CNc2ncnc(N(Cc3ccc(C(F)(F)F)cc3)C3CC3)c2F)CC1 (centres unmarked) ? yes

Is EC50 strictly under 90 nM for the entry `Cn1c(=O)oc2cc(CN(c3ncnc(NCC4(F)CCN(CC(N)=O)CC4)c3F)C3CC3)ccc21` ? no

Is EC50 strictly under 90 nM for the entry NC(=O)CN1CCC(CNc2ncnc(N(Cc3ccc(C(F)(F)F)cc3)C3CC3)c2F)C(C(F)(F)F)C1 (single isomer, unassigned) [Example A7-07-4] ? no

Is EC50 strictly under 90 nM for the entry NC(=O)CN1CC[C@@H](CNc2ncnc(N(CCF)Cc3ccc(C(F)(F)F)cc3)c2F)[C@H](O)C1 (racemic) ? no

Is EC50 strictly under 90 nM for the entry `NC(=O)CN1CCC(CNc2ncnc(N(Cc3cccc(-n4cncn4)c3)C3CC3)c2F)CC1` ? no

----------
# tested_on: RORγ ligand-binding domain fused to Gal4 (Homo sapiens, UniProt P51449)
# Construct: Gal4 (galactose-responsive transcription factor); expressed in transfected cells; host or cells: HEK293
# Sequence (P51449 269-508 limits assumed): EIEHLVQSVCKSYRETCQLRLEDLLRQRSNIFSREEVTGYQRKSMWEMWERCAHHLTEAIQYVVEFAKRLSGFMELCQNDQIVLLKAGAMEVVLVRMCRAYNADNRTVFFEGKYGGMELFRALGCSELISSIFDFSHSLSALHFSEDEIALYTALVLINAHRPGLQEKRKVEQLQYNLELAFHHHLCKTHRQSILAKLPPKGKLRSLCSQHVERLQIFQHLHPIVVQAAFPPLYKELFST
# assay_comment: RORγ Reporter Assay (Gal4)
# Type: cell-based
# test_parameters: HEK293 cells co-transfected with RORγ LBD-Gal4 and luciferase reporter; 24 h incubation; absolute EC50; read-out: EC50
Labelling field: enter Met if recorded EC50 is less than 40 nM. Enter Not met if it equals or exceeds that cut-off.

INSERT INTO assay_data (compound, assigned_category) VALUES
  ('CCN(Cc1ccc(-c2cnn(C)c2)cc1)c1ncnc(NC[C@@H]2CCN(CC(N)=O)C[C@H]2O)c1F (racemic)', 'Not met'),
  ('Cc1cc(CN(c2ncnc(NCC3CCN(CC(N)=O)CC3)c2F)C2CC2)c(C)cc1Cl', 'Not met');

Is EC50 strictly under 40 nM for the entry NC(=O)CN1CC[C@@H](CNc2ncnc(N(Cc3ccc(C(F)(F)F)nc3)C3CCC3)c2F)[C@H](O)C1 (racemic) ? Not met

Is EC50 strictly under 40 nM for the entry `NC(=O)CN1CCC(CO)(CNc2ncnc(N(Cc3ccc(C(F)(F)F)cc3)C3CC3)c2F)CC1` ? Met

Is EC50 strictly under 40 nM for the entry `NC(=O)CN1CCC(N)(CNc2ncnc(N(Cc3ccc(C(F)(F)F)cc3)C3CC3)c2F)CC1` ? Not met

Is EC50 strictly under 40 nM for the entry CCN(Cc1ccc(C(F)(F)F)cc1)c1ncnc(NC[C@H]2CCN(CC(N)=O)C[C@@H]2O)c1F (single isomer, unassigned) [Example A7-21-2] ? Met

Is EC50 strictly under 40 nM for the entry NC(=O)CN1CC[C@H](CNc2ncnc(N(Cc3ccc(C(F)(F)F)cc3F)C3CC3)c2F)[C@@H](O)C1 (single isomer, unassigned) [Example A7-22-2] ? Met

Is EC50 strictly under 40 nM for the entry CC(c1ccc(C(F)(F)F)cc1)N(c1ncnc(NCC2CCN(CC(N)=O)CC2)c1F)C1CC1 (centres unmarked) ? Not met

Is EC50 strictly under 40 nM for the entry `Cc1ccc(C)c(CN(c2ncnc(NCC3CCN(CC(N)=O)CC3)c2F)C2CC2)c1` ? Not met

Is EC50 strictly under 40 nM for the entry `NC(=O)CN1CCC(CNc2ncnc(N(Cc3ccc(C(F)(F)F)cc3)C3CC3)c2F)(c2cnn[nH]2)CC1` ? Met

Is EC50 strictly under 40 nM for the entry CCN(Cc1ccc(C(F)(F)F)cn1)c1ncnc(NC[C@@H]2CCN(CC(N)=O)C[C@H]2O)c1F (racemic) ? Not met

Is EC50 strictly under 40 nM for the entry NC(=O)CN1CC[C@H](CNc2ncnc(N(Cc3ccc(C(F)(F)F)cc3F)C3CC3)c2F)[C@@H](O)C1 (racemic) [Example A7-22] ? Met

Is EC50 strictly under 40 nM for the entry CCN(Cc1ccc(C(F)(F)F)cc1F)c1ncnc(NC[C@@H]2CCN(CC(N)=O)C[C@H]2O)c1F (stereo in doubt) ? Met

Is EC50 strictly under 40 nM for the entry `NC(=O)CN1CCC(CO)(CNc2ncnc(N(Cc3ccc(C(F)(F)F)cn3)C3CC3)c2F)CC1` ? Not met
